Target: human SCD1 (Homo sapiens (Human), UniProt O00767)
Sequence (O00767 whole entry): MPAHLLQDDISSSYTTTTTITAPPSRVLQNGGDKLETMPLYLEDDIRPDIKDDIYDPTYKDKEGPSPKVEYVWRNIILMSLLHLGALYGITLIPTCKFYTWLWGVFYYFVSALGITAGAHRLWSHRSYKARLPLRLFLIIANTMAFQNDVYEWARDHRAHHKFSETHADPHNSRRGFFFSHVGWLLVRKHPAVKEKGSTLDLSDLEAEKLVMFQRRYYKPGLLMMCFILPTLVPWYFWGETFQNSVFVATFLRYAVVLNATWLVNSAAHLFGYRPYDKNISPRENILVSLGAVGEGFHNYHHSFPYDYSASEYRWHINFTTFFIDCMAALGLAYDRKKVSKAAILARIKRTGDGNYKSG
Assay: SCD enzyme activity assay (conversion of radiolabeled stearoyl-CoA to oleoyl-CoA), human SCD1
Format: biochemical
Settings: human SCD1 from baculovirus/Sf9 expression system, reconstituted with cytochrome B5 and cytochrome B5 reductase; read-out: IC50 hSCD-1
pIC50: −log10 of the molar value.
experimental readout: pIC50

Look over these answered cases.
> print(dat)
                                   compound  value.measured
1  O=C(O)Cn1nnc(-c2cnc(N3CCC4(CC3)COc3ccccc34)s2)n1 [Example 6]            7.19
2  O=C(O)Cn1nnc(-c2cnc(N3CCC4(CCc5c(Br)cccc5O4)CC3)s2)n1 [Example 28]            9.00
3  O=C(O)Cn1nnc(-c2nnc(N3CCC4(CCc5c(cccc5C(F)(F)F)O4)CC3)s2)n1 [Example 75]            9.00
4  O=C(O)Cn1nnc(-c2cc(N3CCC4(CCc5c(Cl)cccc5O4)CC3)no2)n1 [Example 2]            7.96
5  O=C(O)Cn1nnc(-c2cc(N3CCC4(CCc5c(Br)cccc5O4)CC3)no2)n1 [Example 22]            9.00

[P] O=C(O)Cn1nnc(-c2nnc(N3CCC4(CCc5c(O)cccc5O4)CC3)s2)n1 [Example 12]
[Q] O=C(O)Cn1nnc(-c2cc(N3CCC4(CCc5c(OC(F)(F)F)cccc5O4)CC3)no2)n1 [Example 16]
[R] O=C(O)Cn1nnc(-c2cnc(N3CCC4(CC3)NC(=O)c3ccccc3O4)s2)n1 [Example 9]
[S] O=C(O)Cn1nnc(-c2cnc(N3CCC4(CC3)Cc3cccc(Cl)c3C(=O)O4)s2)n1 [Example 46]
Task: Put the entries in order of pIC50, starting with the largest number. Respond with an ordered listing of the labels, as requested.
Result: Q, S, R, P
(Q: 9.00, S: 7.68, R: 6.74, P: 6.44)
